# Target: Cholecystokinin receptor type A (Cavia porcellus, UniProt Q63931)
# Sequence (Q63931 whole entry): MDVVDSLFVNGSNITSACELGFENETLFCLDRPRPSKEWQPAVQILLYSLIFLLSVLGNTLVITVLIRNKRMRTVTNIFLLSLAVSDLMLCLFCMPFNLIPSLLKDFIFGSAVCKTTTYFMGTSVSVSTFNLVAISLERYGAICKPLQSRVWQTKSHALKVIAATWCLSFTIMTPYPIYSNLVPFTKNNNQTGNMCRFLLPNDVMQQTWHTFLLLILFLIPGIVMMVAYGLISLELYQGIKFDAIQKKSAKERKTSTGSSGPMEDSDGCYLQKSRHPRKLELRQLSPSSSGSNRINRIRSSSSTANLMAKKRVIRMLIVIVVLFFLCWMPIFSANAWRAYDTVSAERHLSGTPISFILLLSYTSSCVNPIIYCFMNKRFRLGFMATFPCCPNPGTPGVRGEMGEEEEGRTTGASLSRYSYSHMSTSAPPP
# Test Protocol: In vitro smooth muscle contraction activity in guinea pig gall bladder cholecystokinin type A receptor
pEC50: −log10 of the molar value.
Would you mind labelling by pEC50? At or over 9 is Criterion met, under is Criterion not met.

pEC50 >= 9 for `CCCC[C@H](NC(=O)[C@H](Cc1ccc(OS(=O)(=O)O)cc1)NC(=O)[C@H](CC(=O)O)NC(C)=O)C(=O)NCC(=O)N[C@@H](Cc1c[nH]c2ccccc12)C(=O)N[C@@H](CCCC)C(=O)N(C)[C@@H](CC(=O)O)C(=O)N[C@@H](Cc1ccccc1)C(N)=O` ?
Criterion not met

Please tell me: is the compound `CCCC[C@H](NC(=O)[C@H](Cc1ccc(OS(=O)(=O)O)cc1)NC(=O)[C@H](CC(=O)O)NC(C)=O)C(=O)NCC(=O)N[C@@H](Cc1c[nH]c2ccccc12)C(=O)N(C)[C@@H](CCCC)C(=O)N[C@@H](CC(=O)O)C(=O)N[C@@H](Cc1ccccc1)C(N)=O` at or over 9 in terms of pEC50?
Criterion not met

Values from ChEMBL document CHEMBL1125498
